System: Candida albicans
Assay: Antimicrobial activity against Candida albicans ATCC 10231 after 24 hr by broth dilution method
Format: functional
Conditions: ATCC 10231, 24 h
Documented MIC across a set of molecules
Write down the numeric answer in µg/mL and omit the unit.

Use the examples below as a reference point.
[
  {
    "MOLECULE": "O=C1Nc2ccc(Cl)cc2/C1=N/N1C(=O)CSC1c1ccco1 (stereo not given)",
    "SYSTEM_TESTED": "Candida albicans",
    "UNIT_ANNOTATION": "µg/mL",
    "MEASUREMENT": 18.8
  },
  {
    "MOLECULE": "O=C1Nc2ccc(Cl)cc2/C1=N/N1C(=O)C(Cl)C1c1ccccc1O (stereo not given)",
    "SYSTEM_TESTED": "Candida albicans",
    "UNIT_ANNOTATION": "µg/mL",
    "MEASUREMENT": 75
  },
  {
    "MOLECULE": "O=C1Nc2ccc(Cl)cc2/C1=N/N1C(=O)C(Cl)C1c1ccco1 (stereo not given)",
    "SYSTEM_TESTED": "Candida albicans",
    "UNIT_ANNOTATION": "µg/mL",
    "MEASUREMENT": 18.8
  }
]

What value of MIC has been reported for the following molecule? O=C1Nc2ccc(Cl)cc2/C1=N/N1C(=O)C(Cl)C1c1ccccc1 (stereo not given)
37.5

What value of MIC has been reported for the following molecule? COc1cccc(C2C(Cl)C(=O)N2/N=C2\C(=O)Nc3ccc(Cl)cc32)c1 (stereo not given)
18.8

* * *

Tested on: Staphylococcus epidermidis
Experiment: Antimicrobial activity against Staphylococcus epidermidis ATCC 12228 after 24 hr by broth dilution method
Assay type: functional
Settings: ATCC 12228, 24 h
OBSERVED_PROPERTY: log10(MIC) (log10 of the value in µg/mL)
Record value = log10 of MIC given in µg/mL.

[
  {
    "COMPOUND": "O=C1Nc2ccc(Cl)cc2/C1=N/N1C(=O)CSC1c1ccc(F)cc1 (stereo not drawn)",
    "log10(MIC)": 0.97
  },
  {
    "COMPOUND": "O=C1Nc2ccc(Cl)cc2/C1=N/N1C(=O)C(Cl)C1c1ccco1 (stereo not drawn)",
    "log10(MIC)": 1.88
  },
  {
    "COMPOUND": "O=C1Nc2ccc(Cl)cc2/C1=N/N1C(=O)CSC1c1ccccc1O (stereo not drawn)",
    "log10(MIC)": 2.48
  }
]

What value of log10(MIC) has been reported for the following compound? COc1ccc(C2SCC(=O)N2/N=C2\C(=O)Nc3ccc(Cl)cc32)cc1 (stereo not drawn)
0.97

What value of log10(MIC) has been reported for the following compound? O=C(O)c1cn(C2CC2)c2cc(N3CCNCC3)c(F)cc2c1=O
0.67

What value of log10(MIC) has been reported for the following compound? O=C1Nc2ccc(Cl)cc2/C1=N/N1C(=O)C(Cl)C1c1ccccc1Cl (stereo not drawn)
2.18

What value of log10(MIC) has been reported for the following compound? O=C1Nc2ccc(Cl)cc2/C1=N/N1C(=O)C(Cl)C1c1ccc(F)cc1 (stereo not drawn)
1.27

What value of log10(MIC) has been reported for the following compound? O=C1Nc2ccc(Cl)cc2/C1=N/N1C(=O)C(Cl)C1c1ccccc1O (stereo not drawn)
2.48

* * *

Documented MIC across a set of compounds
System: Proteus vulgaris
Experiment: Antimicrobial activity against Proteus vulgaris ATCC 13315 after 24 hr by broth dilution method
Assay type: functional
Conditions: ATCC 13315, 24 h
Write down the numeric answer in µg/mL and omit the unit.

Use the examples below as a reference point.
[
  {
    "COMPOUND": "O=C1Nc2ccc(Cl)cc2/C1=N/N1C(=O)CSC1c1ccc(Cl)cc1 (stereo not given)",
    "UNIT_ANNOTATION": "µg/mL",
    "MIC": 37.5
  },
  {
    "COMPOUND": "COc1ccc(C2SCC(=O)N2/N=C2\\C(=O)Nc3ccc(Cl)cc32)cc1 (stereo not given)",
    "UNIT_ANNOTATION": "µg/mL",
    "MIC": 37.5
  },
  {
    "COMPOUND": "CN(C)c1ccc(C2C(Cl)C(=O)N2/N=C2\\C(=O)Nc3ccc(Cl)cc32)cc1 (stereo not given)",
    "UNIT_ANNOTATION": "µg/mL",
    "MIC": 9.37
  },
  {
    "COMPOUND": "O=C1Nc2ccc(Cl)cc2/C1=N/N1C(=O)C(Cl)C1c1ccccc1 (stereo not given)",
    "UNIT_ANNOTATION": "µg/mL",
    "MIC": 37.5
  }
]

What value of MIC has been reported for the following compound? COc1cccc(C2SCC(=O)N2/N=C2\C(=O)Nc3ccc(Cl)cc32)c1 (stereo not given)
37.5

* * *

Test system: Bacillus pumilus
Test: Antimicrobial activity against Bacillus pumilus ATCC 14884 after 24 hr by broth dilution method
Format: functional
Conditions: ATCC 14884, 24 h
Rule for this label: yes means MIC is less than 40 µg/mL; no means MIC is at least 40 µg/mL.

Examples from the recorded data:
[
  {
    "COMPOUND": "O=C(O)c1cn(C2CC2)c2cc(N3CCNCC3)c(F)cc2c1=O [CIPROFLOXACIN]",
    "CLASS": "yes"
  },
  {
    "COMPOUND": "O=C1Nc2ccc(Cl)cc2/C1=N/N1C(=O)C(Cl)C1c1ccco1 (stereo not given)",
    "CLASS": "yes"
  },
  {
    "COMPOUND": "O=C1Nc2ccc(Cl)cc2/C1=N/N1C(=O)CSC1c1ccc(Cl)cc1 (stereo not given)",
    "CLASS": "yes"
  }
]

Note: attention shifts to another entry.
Hello, is MIC of the following compound strictly smaller than 40 µg/mL? O=C1Nc2ccc(Cl)cc2/C1=N/N1C(=O)C(Cl)C1c1ccc([N+](=O)[O-])cc1 (stereo not given)
yes

* * *

Test system: Candida albicans
Experiment: Antimicrobial activity against Candida albicans ATCC 10231 after 24 hr by broth dilution method
Type: functional
Conditions: ATCC 10231, 24 h
OBSERVED_PROPERTY: MIC (µg/mL)
Write down the numeric answer in µg/mL and omit the unit.

[
  {
    "COMPOUND": "O=C1Nc2ccc(Cl)cc2/C1=N/N1C(=O)C(Cl)C1c1ccc(Cl)cc1 (stereo not drawn)",
    "SYSTEM_TESTED": "Candida albicans",
    "UNIT_ANNOTATION": "µg/mL",
    "MIC": 4.68
  },
  {
    "COMPOUND": "COc1cccc(C2SCC(=O)N2/N=C2\\C(=O)Nc3ccc(Cl)cc32)c1 (stereo not drawn)",
    "SYSTEM_TESTED": "Candida albicans",
    "UNIT_ANNOTATION": "µg/mL",
    "MIC": 18.8
  }
]

Please find the next compound below.
What value of MIC has been reported for the following compound? O=C1Nc2ccc(Cl)cc2/C1=N/N1C(=O)CSC1c1ccc([N+](=O)[O-])cc1 (stereo not drawn)
9.37

* * *

Documented log10 MIC across a set of compounds
Test system: Aspergillus niger
Test: Antimicrobial activity against Aspergillus niger ATCC 9142 after 24 hr by broth dilution method
Format: functional
Conditions: ATCC 9142, 24 h
Record value = log10 of MIC given in µg/mL.

Use the examples below as a reference point.
[
  {
    "COMPOUND": "O=C1Nc2ccc(Cl)cc2/C1=N/N1C(=O)C(Cl)C1c1ccc(O)cc1 (stereo not given)",
    "log10 MIC": 0.67
  },
  {
    "COMPOUND": "CN(C)c1ccc(C2C(Cl)C(=O)N2/N=C2\\C(=O)Nc3ccc(Cl)cc32)cc1 (stereo not given)",
    "log10 MIC": 0.97
  },
  {
    "COMPOUND": "O=C1Nc2ccc(Cl)cc2/C1=N/N1C(=O)C(Cl)C1c1ccc([N+](=O)[O-])cc1 (stereo not given)",
    "log10 MIC": 0.67
  },
  {
    "COMPOUND": "O=C1Nc2ccc(Cl)cc2/C1=N/N1C(=O)CSC1c1ccccc1O (stereo not given)",
    "log10 MIC": 2.18
  },
  {
    "COMPOUND": "O=C1Nc2ccc(Cl)cc2/C1=N/N1C(=O)CSC1c1ccc([N+](=O)[O-])cc1 (stereo not given)",
    "log10 MIC": 0.67
  }
]

What value of log10 MIC has been reported for the following compound? O=C1Nc2ccc(Cl)cc2/C1=N/N1C(=O)C(Cl)C1c1ccco1 (stereo not given)
1.27

What value of log10 MIC has been reported for the following compound? O=C1Nc2ccc(Cl)cc2/C1=N/N1C(=O)CSC1c1ccc(F)cc1 (stereo not given)
0.97

// data source = ChEMBL document CHEMBL3046063
